- target or system: human EGFR (native sequence) (Homo sapiens, UniProt P00533)
- Sequence (P00533 25-1210): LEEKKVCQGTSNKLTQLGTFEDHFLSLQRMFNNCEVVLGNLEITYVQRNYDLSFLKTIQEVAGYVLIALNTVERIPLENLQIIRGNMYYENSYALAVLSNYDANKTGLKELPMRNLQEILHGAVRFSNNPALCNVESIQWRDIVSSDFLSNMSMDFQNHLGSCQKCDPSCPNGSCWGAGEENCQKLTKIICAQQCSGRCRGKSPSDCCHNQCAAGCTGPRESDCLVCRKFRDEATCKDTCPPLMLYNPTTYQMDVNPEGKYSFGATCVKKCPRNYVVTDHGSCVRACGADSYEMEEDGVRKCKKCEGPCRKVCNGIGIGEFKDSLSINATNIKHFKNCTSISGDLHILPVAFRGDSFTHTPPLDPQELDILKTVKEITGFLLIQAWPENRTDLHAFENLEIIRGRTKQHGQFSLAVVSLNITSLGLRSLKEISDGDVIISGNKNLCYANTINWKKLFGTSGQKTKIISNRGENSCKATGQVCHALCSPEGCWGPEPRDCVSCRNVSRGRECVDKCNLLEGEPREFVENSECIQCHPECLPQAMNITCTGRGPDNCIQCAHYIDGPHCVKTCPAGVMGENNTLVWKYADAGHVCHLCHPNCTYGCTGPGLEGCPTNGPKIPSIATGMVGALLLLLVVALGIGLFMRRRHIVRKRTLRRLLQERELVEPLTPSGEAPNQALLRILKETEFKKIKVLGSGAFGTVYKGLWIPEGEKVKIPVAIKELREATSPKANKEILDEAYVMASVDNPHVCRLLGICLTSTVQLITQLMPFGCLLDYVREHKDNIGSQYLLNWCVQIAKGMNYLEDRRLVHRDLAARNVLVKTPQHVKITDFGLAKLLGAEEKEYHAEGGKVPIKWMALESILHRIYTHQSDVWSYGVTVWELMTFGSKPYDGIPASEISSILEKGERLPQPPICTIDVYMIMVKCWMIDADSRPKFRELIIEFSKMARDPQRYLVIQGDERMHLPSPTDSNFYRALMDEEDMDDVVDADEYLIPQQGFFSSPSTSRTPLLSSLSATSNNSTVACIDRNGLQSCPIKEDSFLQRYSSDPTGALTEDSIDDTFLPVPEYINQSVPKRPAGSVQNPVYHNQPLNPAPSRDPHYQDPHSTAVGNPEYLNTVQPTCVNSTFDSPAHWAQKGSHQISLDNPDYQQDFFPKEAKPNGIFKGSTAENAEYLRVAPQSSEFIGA
- protocol text: Kinase inhibitory activity against human EGFR (native sequence)
- Assay type: biochemical
- assay setup: 10 pt curves, 3 μM top concentration, 10 μM ATP; read-out: IC50 for kinase inhibition, EGFR
For each record, write down the corresponding IC50.

Per the record, C=CC(=O)Nc1ccc(OC)c(Nc2ncc(Cl)c(Nc3cnccc3P(C)(C)=O)n2)c1 has IC50 of ≥ 0.25 µM

Per the record, C=CC(=O)Nc1cc(Nc2ncc(Cl)c(Nc3ccccc3P(C)(C)=O)n2)c(OC)cc1C#CCN(C)C has IC50 of < 0.05 µM

Per the record, C=CC(=O)Nc1cc(Nc2ncc(Cl)c(Nc3ccccc3P(C)(C)=O)n2)c(Cl)cc1C#CCN(C)C has IC50 of < 0.05 µM

Per the record, C=CC(=O)Nc1ccc(OC)c(Nc2ncc(Cl)c(Nc3ccc(OCCN(C)C)cc3P(C)(C)=O)n2)c1 has IC50 of < 0.05 µM

====

For each record, write down the corresponding pIC50.
- target or system: human EGFR (native sequence) (Homo sapiens)
- protocol text: Kinase inhibitory activity against human EGFR (native sequence)
- Assay type: biochemical
- assay setup: human EGFR native sequence; 10 μM ATP; read-out: IC50 for kinase inhibition, EGFR
pIC50: −log10 of the molar value.

Per the record, C=CC(=O)Nc1cc(Nc2ncc(Cl)c(Nc3ccccc3P(C)(C)=O)n2)c(OC)cc1N1CC[C@@H](N(C)C)C1 (stereo in doubt) has pIC50 of > 7.30

Per the record, C=CC(=O)Nc1cc(Nc2ncc(Cl)c(Nc3ccccc3P(C)(C)=O)n2)c(OC)cc1N1CCC(N2CCOCC2)C1 (centres unmarked) has pIC50 of > 7.30

Per the record, C=CC(=O)Nc1cc(Nc2ncc(Cl)c(Nc3ccccc3P(C)(C)=O)n2)c(OC)cc1OCCN1CCCC1 has pIC50 of > 7.30

Per the record, C=CC(=O)Nc1cc(Nc2ncc(Cl)c(Nc3ccccc3P(C)(C)=O)n2)c(OC)cc1N1CC[C@H](N(C)C)C1 (stereo in doubt) has pIC50 of > 7.30

Per the record, COc1ccc(NC(=O)/C=C\C(=O)NCCN(C)C)cc1Nc1ncc(Cl)c(Nc2ccccc2P(C)(C)=O)n1 has pIC50 of ≤ 6.60

Per the record, C=CC(=O)Nc1cc(Nc2ncc(Cl)c(Nc3ccccc3P(C)(C)=O)n2)c(OC)cc1C#CC(C)(C)N has pIC50 of > 7.30

Per the record, COc1ccc(NC(=O)/C=C/C(=O)N(C)C)cc1Nc1ncc(Cl)c(Nc2ccccc2P(C)(C)=O)n1 has pIC50 of ≤ 6.60

Per the record, C=CC(=O)Nc1cc(Nc2ncc(Cl)c(Nc3ccccc3P(C)(C)=O)n2)c(OC)cc1OCCCN1CCOCC1 has pIC50 of 6.60 to 7.00

Per the record, COc1ccc(NC(=O)/C=C/CN2CCCCC2)cc1Nc1ncc(Cl)c(Nc2ccccc2P(C)(C)=O)n1 has pIC50 of > 7.30

Per the record, C=CC(=O)Nc1cc(Nc2ncc(Cl)c(Nc3ccccc3P(C)(C)=O)n2)c(OC)cc1N1CCC(N(CC)CC)C1 (centres unmarked) has pIC50 of > 7.30

Per the record, C=C(CN1CCS(=O)(=O)CC1)C(=O)Nc1ccc(OC)c(Nc2ncc(Cl)c(Nc3ccccc3P(C)(C)=O)n2)c1 has pIC50 of ≤ 6.60

Per the record, C=CC(=O)Nc1cc(Nc2ncc(Cl)c(Nc3ccccc3P(C)(C)=O)n2)c(OC)cc1N1CCC(N2CCOCC2)CC1 has pIC50 of > 7.30

Per the record, C=CC(=O)Nc1cc(Nc2ncc(Cl)c(Nc3ccccc3P(C)(C)=O)n2)c(OC)cc1OCCN1CCCCC1 has pIC50 of > 7.30

Per the record, COc1ccc(NC(=O)C#Cc2ccccc2)cc1Nc1ncc(Cl)c(Nc2ccccc2P(C)(C)=O)n1 has pIC50 of ≤ 6.60

====

- target or system: EGFR L858R/T790M (Homo sapiens, UniProt P00533, L858R/T790M)
- Sequence (P00533 25-1210 T790M/L858R): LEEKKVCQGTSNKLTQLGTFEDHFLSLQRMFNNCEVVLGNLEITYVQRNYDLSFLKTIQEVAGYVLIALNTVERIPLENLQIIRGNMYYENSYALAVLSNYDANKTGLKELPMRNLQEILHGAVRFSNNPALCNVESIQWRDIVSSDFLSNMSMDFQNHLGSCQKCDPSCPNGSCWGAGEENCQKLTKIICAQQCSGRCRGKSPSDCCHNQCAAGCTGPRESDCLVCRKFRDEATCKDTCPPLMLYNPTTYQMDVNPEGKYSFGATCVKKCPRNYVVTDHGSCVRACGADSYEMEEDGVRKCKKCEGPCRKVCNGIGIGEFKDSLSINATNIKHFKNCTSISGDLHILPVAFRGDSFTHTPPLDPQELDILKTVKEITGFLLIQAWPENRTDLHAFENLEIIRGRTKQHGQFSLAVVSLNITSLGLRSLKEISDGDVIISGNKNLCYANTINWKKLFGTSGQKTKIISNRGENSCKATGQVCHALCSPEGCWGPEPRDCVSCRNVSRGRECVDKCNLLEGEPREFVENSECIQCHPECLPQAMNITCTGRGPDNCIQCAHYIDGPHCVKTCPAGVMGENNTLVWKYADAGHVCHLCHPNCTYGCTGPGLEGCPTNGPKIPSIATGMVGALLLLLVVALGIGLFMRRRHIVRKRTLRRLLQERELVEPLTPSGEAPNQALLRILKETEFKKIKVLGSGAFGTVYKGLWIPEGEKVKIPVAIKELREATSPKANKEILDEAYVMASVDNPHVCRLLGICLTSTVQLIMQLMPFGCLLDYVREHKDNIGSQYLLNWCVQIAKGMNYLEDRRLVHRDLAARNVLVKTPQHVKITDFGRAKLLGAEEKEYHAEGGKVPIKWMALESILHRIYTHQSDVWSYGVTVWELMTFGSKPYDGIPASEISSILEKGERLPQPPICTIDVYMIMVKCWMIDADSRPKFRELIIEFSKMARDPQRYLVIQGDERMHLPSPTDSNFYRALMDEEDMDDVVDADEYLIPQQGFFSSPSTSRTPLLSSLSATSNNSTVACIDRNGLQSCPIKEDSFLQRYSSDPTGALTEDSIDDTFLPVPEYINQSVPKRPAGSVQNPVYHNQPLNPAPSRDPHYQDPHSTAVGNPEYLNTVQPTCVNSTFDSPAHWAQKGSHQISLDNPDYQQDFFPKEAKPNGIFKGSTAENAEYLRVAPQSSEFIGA
- protocol text: Kinase inhibitory activity against EGFR bearing the L858R/T790M double mutation
- Type: biochemical
- assay setup: EGFR L858R/T790M double mutation; 10 μM ATP; read-out: IC50 for kinase inhibition, EGFR L858R T790M
pIC50: −log10 of the molar value.
observable: pIC50

Per the record, C=CC(=O)Nc1cc(Nc2ncc(Cl)c(Nc3ccccc3P(C)(C)=O)n2)c(OC)cc1OCCN1CCCC1 [Example 1] has pIC50 of > 7.30

Per the record, COc1ccc(NC(=O)/C=C/C(=O)N(C)C)cc1Nc1ncc(Cl)c(Nc2ccccc2P(C)(C)=O)n1 [Example 60] has pIC50 of 6.60 to 7.00

Per the record, C=CC(=O)Nc1cc(Nc2ncc(Cl)c(Nc3ccccc3P(C)(C)=O)n2)c(OC)cc1OCCCN1CCOCC1 [Example 5] has pIC50 of > 7.30

Per the record, C=CC(=O)Nc1cc(Nc2ncc(Cl)c(Nc3ccccc3P(C)(C)=O)n2)c(OC)cc1OCCN1CCN(C)CC1 [Example 2] has pIC50 of > 7.30

Per the record, C=C(CN1CCS(=O)(=O)CC1)C(=O)Nc1ccc(OC)c(Nc2ncc(Cl)c(Nc3ccccc3P(C)(C)=O)n2)c1 [Example 46] has pIC50 of > 7.30

Per the record, C=CC(=O)Nc1ccc(OC)c(Nc2ncc(Cl)c(Nc3ccc(OCCOC)cc3P(C)(C)=O)n2)c1 [Example 86] has pIC50 of > 7.30

Per the record, C=CC(=O)Nc1cc(Nc2ncc(Cl)c(Nc3ccccc3P(C)(C)=O)n2)c(OC)cc1OC(COC)CN1CCC1 (stereo not shown) [Example 15] has pIC50 of > 7.30

====

- System: BaF3 cells expressing wildtype EGFR
- protocol text: Antiproliferative activity (MTT) against control BaF3 cells expressing wildtype EGFR
- Type: cell-based
- assay setup: Mus musculus, BAF3 parental cells
pIC50: −log10 of the molar value.
observable: pIC50

Per the record, C=CC(=O)Nc1ccc(OC2COC2)c(Nc2ncc(Cl)c(Nc3ccccc3P(C)(C)=O)n2)c1 has pIC50 of ≤ 6.60

Per the record, CC#CC(=O)Nc1cc(Nc2ncc(Cl)c(Nc3ccccc3P(C)(C)=O)n2)c(OC)cc1OC1COC1 has pIC50 of ≤ 6.60

Per the record, COc1cc(C)c(NC(=O)CCl)cc1Nc1ncc(Cl)c(Nc2ccccc2P(C)(C)=O)n1 has pIC50 of ≤ 6.60

Per the record, CNC(=O)/C=C\C(=O)Nc1ccc(OC)c(Nc2ncc(Cl)c(Nc3ccccc3P(C)(C)=O)n2)c1 has pIC50 of ≤ 6.60

Per the record, C=CC(=O)Nc1cc(Nc2ncc(Cl)c(Nc3ccccc3P(C)(C)=O)n2)c(OC)cc1C#CCN(C(C)C)C(C)C has pIC50 of ≤ 6.60

Per the record, CC#CC(=O)Nc1cc(Nc2ncc(Cl)c(Nc3ccccc3P(C)(C)=O)n2)c(OC)cc1N1CCC(N2CCN(C)CC2)CC1 has pIC50 of ≤ 6.60

Per the record, C=C(C)C(=O)Nc1cc(Nc2ncc(Cl)c(Nc3ccccc3P(C)(C)=O)n2)c(OC)cc1N1CC[C@@H](N(C)C)C1 (racemic) has pIC50 of ≤ 6.60

Per the record, COc1ccc(NS(=O)(=O)CCl)cc1Nc1ncc(Cl)c(Nc2ccccc2P(C)(C)=O)n1 has pIC50 of ≤ 6.60

====

For each record, write down the corresponding pIC50.
- target or system: EGFR L858R (Homo sapiens, UniProt P00533, L858R)
- Sequence (P00533 25-1210 L858R): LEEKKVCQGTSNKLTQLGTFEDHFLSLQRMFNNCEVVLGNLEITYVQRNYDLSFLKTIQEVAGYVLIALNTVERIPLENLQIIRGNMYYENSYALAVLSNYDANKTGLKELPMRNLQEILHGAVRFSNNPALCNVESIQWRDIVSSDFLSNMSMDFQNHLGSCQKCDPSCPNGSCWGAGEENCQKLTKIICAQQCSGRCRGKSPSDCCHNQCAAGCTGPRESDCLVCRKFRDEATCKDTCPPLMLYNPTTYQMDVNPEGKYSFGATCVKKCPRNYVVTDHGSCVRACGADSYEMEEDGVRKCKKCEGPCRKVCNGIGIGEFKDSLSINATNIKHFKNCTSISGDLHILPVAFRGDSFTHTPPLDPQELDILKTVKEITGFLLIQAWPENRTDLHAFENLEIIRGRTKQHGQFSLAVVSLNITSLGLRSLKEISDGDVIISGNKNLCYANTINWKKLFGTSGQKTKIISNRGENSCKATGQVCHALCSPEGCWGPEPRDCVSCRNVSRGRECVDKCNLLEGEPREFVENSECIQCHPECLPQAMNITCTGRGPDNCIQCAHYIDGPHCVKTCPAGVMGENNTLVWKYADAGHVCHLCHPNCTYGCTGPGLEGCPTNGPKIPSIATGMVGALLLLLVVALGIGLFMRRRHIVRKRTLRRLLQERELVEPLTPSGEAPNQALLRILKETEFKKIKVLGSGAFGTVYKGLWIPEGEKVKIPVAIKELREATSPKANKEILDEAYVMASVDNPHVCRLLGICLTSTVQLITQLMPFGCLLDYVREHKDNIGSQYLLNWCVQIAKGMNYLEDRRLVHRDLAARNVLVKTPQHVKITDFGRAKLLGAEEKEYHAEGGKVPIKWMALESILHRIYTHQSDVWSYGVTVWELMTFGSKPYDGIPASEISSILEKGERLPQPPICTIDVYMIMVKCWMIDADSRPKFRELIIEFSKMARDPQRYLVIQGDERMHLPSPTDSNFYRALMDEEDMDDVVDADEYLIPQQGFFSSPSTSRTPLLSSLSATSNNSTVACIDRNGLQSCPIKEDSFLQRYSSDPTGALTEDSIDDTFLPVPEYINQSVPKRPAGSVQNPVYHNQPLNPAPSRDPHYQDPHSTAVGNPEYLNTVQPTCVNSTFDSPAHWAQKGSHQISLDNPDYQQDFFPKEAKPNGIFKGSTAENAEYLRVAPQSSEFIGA
- protocol text: Kinase inhibitory activity against EGFR bearing the L858R mutation
- Type: biochemical
- assay setup: 10 pt curves, 3 μM top concentration, 10 μM ATP; read-out: IC50 for kinase inhibition, EGFR L858R
pIC50: −log10 of the molar value.

Per the record, C=CC(=O)Nc1cc(Nc2ncc(Cl)c(Nc3ccccc3S(=O)(=O)C(C)C)n2)c(OC)cc1C#CCN(C)C [Example 153] has pIC50 of > 7.30

Per the record, C=CC(=O)Nc1cc(Nc2ncc(Cl)c(Nc3ccccc3P(C)(C)=O)n2)c(Cl)cc1C#CCN(C)C [Example 156] has pIC50 of > 7.30

Per the record, C=CC(=O)Nc1ccc(OCCN(C)C)c(Nc2ncc(Cl)c(Nc3ccccc3P(C)(C)=O)n2)c1 [Example 117] has pIC50 of ≤ 6.60

====

For each record, write down the corresponding GI50.
- target or system: BaF3 cells expressing the target EGFR mutations (Homo sapiens, UniProt P00533, T790M, cells depend on it, form not given)
- Construct: IC50, BAF3 EGFR DEL T790M PURO POOL; other: BAF3 EGFR DEL T790M PURO POOL cells, MTT; other: BAF3 EGFR DEL T790M PURO POOL cells; MTT
- Sequence (P00533 with tags, fused parts or gaps DEL746-750/T790M, form open): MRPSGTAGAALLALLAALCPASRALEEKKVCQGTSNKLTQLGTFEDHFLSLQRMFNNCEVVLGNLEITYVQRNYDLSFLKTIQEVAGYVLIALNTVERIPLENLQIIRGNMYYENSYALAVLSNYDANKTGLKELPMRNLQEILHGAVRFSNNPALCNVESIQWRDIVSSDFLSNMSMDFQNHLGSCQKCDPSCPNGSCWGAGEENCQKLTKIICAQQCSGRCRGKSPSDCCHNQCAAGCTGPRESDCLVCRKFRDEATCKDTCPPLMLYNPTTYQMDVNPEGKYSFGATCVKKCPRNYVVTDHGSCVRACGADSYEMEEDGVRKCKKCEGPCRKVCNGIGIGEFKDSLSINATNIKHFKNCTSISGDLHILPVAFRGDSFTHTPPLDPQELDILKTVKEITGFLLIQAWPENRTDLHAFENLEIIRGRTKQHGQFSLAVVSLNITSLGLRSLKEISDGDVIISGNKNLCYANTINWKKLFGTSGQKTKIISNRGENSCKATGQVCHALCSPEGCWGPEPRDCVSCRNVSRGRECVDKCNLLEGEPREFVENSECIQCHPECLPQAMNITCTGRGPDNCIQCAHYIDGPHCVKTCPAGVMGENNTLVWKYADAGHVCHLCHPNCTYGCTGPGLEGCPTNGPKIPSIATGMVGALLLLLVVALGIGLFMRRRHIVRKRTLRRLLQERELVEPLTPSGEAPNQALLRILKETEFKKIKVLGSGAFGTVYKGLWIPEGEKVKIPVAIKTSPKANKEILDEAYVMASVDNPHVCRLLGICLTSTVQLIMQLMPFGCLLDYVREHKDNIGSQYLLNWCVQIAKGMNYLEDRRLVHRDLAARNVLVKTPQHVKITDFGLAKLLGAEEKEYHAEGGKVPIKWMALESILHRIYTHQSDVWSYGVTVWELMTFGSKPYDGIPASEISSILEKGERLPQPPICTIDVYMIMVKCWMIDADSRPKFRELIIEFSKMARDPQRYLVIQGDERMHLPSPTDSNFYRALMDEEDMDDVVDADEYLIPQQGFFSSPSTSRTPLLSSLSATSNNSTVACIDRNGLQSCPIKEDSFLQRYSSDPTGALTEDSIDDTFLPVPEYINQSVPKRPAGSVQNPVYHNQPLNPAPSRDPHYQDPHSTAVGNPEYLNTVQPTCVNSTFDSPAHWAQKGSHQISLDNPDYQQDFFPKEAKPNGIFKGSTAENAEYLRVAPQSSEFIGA
- protocol text: Antiproliferative activity (MTT) against BaF3 cells expressing the target EGFR mutations
- Assay type: cell-based
- assay setup: BAF3 EGFR DEL T790M PURO POOL cells, read-out: IC50, BAF3 EGFR DEL T790M PURO POOL

Per the record, C=CC(=O)Nc1ccc(Cl)c(Nc2ncc(Cl)c(Nc3ccccc3P(C)(C)=O)n2)c1 [Example 136] has GI50 of < 50 nM

Per the record, C=CC(=O)Nc1ccc(Nc2ncc(Cl)c(Nc3cccc(OCCN4CCCCC4)c3P(C)(C)=O)n2)c(OC)c1 [Example 107] has GI50 of < 50 nM

Per the record, C=CC(=O)Nc1ccc(OC)c(Nc2ncc(Cl)c(Nc3ccc(OCCOC)cc3P(C)(C)=O)n2)c1 [Example 86] has GI50 of < 50 nM

Per the record, C=CC(=O)Nc1cc(Nc2ncc(Cl)c(Nc3ccccc3P(C)(C)=O)n2)c(OC)cc1OCC1CCN(C)CC1 [Example 3] has GI50 of 101 to 250 nM

Per the record, C=CC(=O)Nc1cc(Nc2ncc(Cl)c(Nc3ccccc3P(C)(C)=O)n2)c(OC)cc1C#CCN(CC)CC [Example 96] has GI50 of < 50 nM

Per the record, COc1cc(P(C)(C)=O)ccc1Nc1ncc(Cl)c(Oc2cccc(NC(=O)C#CCN(C)C)c2)n1 [Example 83] has GI50 of 101 to 250 nM

Per the record, C=CC(=O)Nc1cc(Nc2ncc(Cl)c(Nc3ccccc3P(C)(C)=O)n2)c(OC)cc1N1CCC(N(C)CCN(CC)CC)C1 (stereo not drawn) [Example 38] has GI50 of < 50 nM

Per the record, C=CC(=O)Nc1ccc(OCCN(C)C)c(Nc2ncc(Cl)c(Nc3ccccc3P(C)(C)=O)n2)c1 [Example 117] has GI50 of ≥ 250 nM

Per the record, C=CC(=O)Nc1cc(Nc2ncc(Cl)c(Nc3ccccc3P(C)(C)=O)n2)c(OC)cc1N1CCC(N2CCN(C)CC2)C1 (stereo not drawn) [Example 37] has GI50 of 50 to 100 nM

Per the record, C=CC(=O)Nc1ccc(OC)c(Nc2ncc(Cl)c(Nc3ccc(OC4CCOC4)cc3P(C)(C)=O)n2)c1 (stereo not drawn) [Example 99] has GI50 of < 50 nM

Per the record, C=CC(=O)Nc1cc(Nc2ncc(Cl)c(Nc3ccccc3P(C)(C)=O)n2)c(OC)cc1N1CCC(N(C)C)CC1 [Example 23] has GI50 of < 50 nM

Per the record, C=CC(=O)Nc1ccc(OC)c(Nc2ncc(Cl)c(Nc3ccc(OCCN4CCCCC4)cc3P(C)(C)=O)n2)c1 [Example 108] has GI50 of < 50 nM

Per the record, C=CC(=O)Nc1cc(Nc2ncc(Cl)c(Nc3ccccc3P(C)(C)=O)n2)c(Cl)cc1C#CCN(C)C [Example 156] has GI50 of < 50 nM

Per the record, C=CC(=O)N1CCc2cc(OC)c(Nc3ncc(Cl)c(Nc4ccccc4P(C)(C)=O)n3)cc21 [Example 127] has GI50 of 101 to 250 nM

Per the record, C=C(CN1CCCC1)C(=O)Nc1ccc(OC)c(Nc2ncc(Cl)c(Nc3ccccc3P(C)(C)=O)n2)c1 [Example 42] has GI50 of < 50 nM
